Below: a set of entries, each annotated with reported pEC50.
Target: E. coli PBP1b (Escherichia coli (strain K12), UniProt P02919)
Sequence (P02919 whole entry): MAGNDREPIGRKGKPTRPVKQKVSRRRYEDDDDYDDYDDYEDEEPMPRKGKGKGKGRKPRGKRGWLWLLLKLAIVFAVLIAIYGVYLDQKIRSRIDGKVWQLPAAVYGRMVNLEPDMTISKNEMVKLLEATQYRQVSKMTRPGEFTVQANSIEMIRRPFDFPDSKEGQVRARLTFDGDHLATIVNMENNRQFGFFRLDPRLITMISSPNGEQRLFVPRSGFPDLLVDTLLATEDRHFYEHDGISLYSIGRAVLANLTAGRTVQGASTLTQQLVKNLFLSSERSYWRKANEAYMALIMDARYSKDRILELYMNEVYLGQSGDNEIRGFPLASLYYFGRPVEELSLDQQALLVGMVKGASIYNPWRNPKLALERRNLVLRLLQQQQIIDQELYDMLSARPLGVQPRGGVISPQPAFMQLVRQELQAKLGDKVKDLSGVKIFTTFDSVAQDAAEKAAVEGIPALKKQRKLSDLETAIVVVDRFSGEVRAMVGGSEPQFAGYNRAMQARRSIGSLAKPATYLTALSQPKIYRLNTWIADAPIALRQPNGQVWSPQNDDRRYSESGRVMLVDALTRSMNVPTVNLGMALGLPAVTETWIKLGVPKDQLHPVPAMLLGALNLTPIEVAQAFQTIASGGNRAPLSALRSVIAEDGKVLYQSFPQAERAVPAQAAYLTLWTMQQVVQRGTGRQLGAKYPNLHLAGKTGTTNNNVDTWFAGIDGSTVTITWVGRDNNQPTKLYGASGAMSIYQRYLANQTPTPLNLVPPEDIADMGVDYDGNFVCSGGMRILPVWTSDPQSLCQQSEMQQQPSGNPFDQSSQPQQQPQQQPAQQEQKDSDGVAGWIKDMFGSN
Assay: Radioligand competition binding assay with 14C-labeled boronic acid probe, PBP1b
pEC50: −log10 of the molar value. Where a name gives a salt, the structure may show the parent alone.

Molecule	Subject Of Test	pEC50
CCN1CCN(C(=O)NC(C(=O)N[C@H]2Cc3cccc(C(=O)O)c3OB2O)c2cnc(O)cn2)C(=O)C1=O (some centres unmarked) [Example 121]	E. coli PBP1b (Escherichia coli (strain K12), UniProt P02919)	< 4.00
CCN1CCN(C(=O)N[C@H](C(=O)N[C@H]2Cc3cccc(C(=O)O)c3OB2O)C2CCN(C(=N)N)CC2)C(=O)C1=O [Example 92]	E. coli PBP1b (Escherichia coli (strain K12), UniProt P02919)	> 5.00
O=C(O)c1c(F)ccc2c1OB(O)[C@@H](NC(=O)C(NC(=O)N1CCN(CCF)C(=O)C1=O)c1ccc(O)c(O)c1Cl)C2 (some centres unmarked) [Example 131]	E. coli PBP1b (Escherichia coli (strain K12), UniProt P02919)	4.00 to 5.00
CCN1CCN(C(=O)NC(C(=O)N[C@H]2Cc3cccc(C(=O)O)c3OB2O)c2ccc(O)c(O)c2)C(=O)C1=O (some centres unmarked) [Example 22]	E. coli PBP1b (Escherichia coli (strain K12), UniProt P02919)	> 5.00
CCN1CCN(C(=O)NC(CNC(C)=O)C(=O)N[C@H]2Cc3cccc(C(=O)O)c3OB2O)C(=O)C1=O (some centres unmarked) [Example 69]	E. coli PBP1b (Escherichia coli (strain K12), UniProt P02919)	> 5.00

Give me measured pEC50, please, for this molecule: CCN1CCN(C(=O)NC(C(=O)N[C@H]2Cc3cccc(C(=O)O)c3OB2O)c2cc(O)c(O)c(O)c2)C(=O)C1=O (some centres unmarked) [Example 31]
4.00 to 5.00

Give me measured pEC50, please, for this molecule: CCN1CCN(C(=O)N[C@H](CN)C(=O)N[C@H]2Cc3cccc(C(=O)O)c3OB2O)C(=O)C1=O [Example 11, trifluoroacetic acid salt]
> 5.00

Give me measured pEC50, please, for this molecule: CCN1CCN(C(=O)NC(C(=O)N[C@H]2Cc3cccc(C(=O)O)c3OB2O)c2ccc[n+](CC(=O)[O-])c2)C(=O)C1=O (some centres unmarked) [Example 108]
4.00 to 5.00

====

System: P. aeruginosa (ΔmexAB-oprM)
Assay: microbe, parasite or virus in culture
Format: cell-based
Conditions: Pseudomonas aeruginosa, read-out: MIC P. aeruginosa ΔmexAB-OprM
Property Label: MIC

Molecule	MIC
CCN1CCN(C(=O)NC(C(=O)N[C@H]2Cc3c(F)cc(F)c(C(=O)O)c3OB2O)c2ccc(O)c(O)c2Cl)C(=O)C1=O (stereo partly shown) [Example 185]	0.5 to 1 µg/mL
CCN1CCN(C(=O)NC(C(=O)N[C@H]2Cc3ccc(F)c(C(=O)O)c3OB2O)c2ccc(S(N)(=O)=O)cc2)C(=O)C1=O (stereo partly shown) [Example 181]	8 to 16 µg/mL

Give me measured MIC, please, for this molecule: NCCN1CCN(C(=O)N[C@@H](C(=O)N[C@H]2Cc3cccc(C(=O)O)c3OB2O)c2ncc(O)cc2F)C(=O)C1=O [Example 225]
2 to 4 µg/mL

Give me measured MIC, please, for this molecule: CCN1C[C@H](CO)N(C(=O)NC(C(=O)N[C@H]2Cc3ccc(F)c(C(=O)O)c3OB2O)c2ccc(O)c(O)c2Cl)C(=O)C1=O (stereo partly shown) [Example 237]
< 0.25 µg/mL

Give me measured MIC, please, for this molecule: CCN1CCN(C(=O)N[C@@H](C(=O)N[C@H]2Cc3ccc(F)c(C(=O)O)c3OB2O)c2ccc(O)c(O)c2Cl)C(=O)C1=O [Example 189]
< 0.25 µg/mL

Give me measured MIC, please, for this molecule: O=C(O)c1c(F)ccc2c1OB(O)[C@@H](NC(=O)C(NC(=O)N1CCN(CCF)C(=O)C1=O)c1ccc(O)c(O)c1Cl)C2 (stereo partly shown) [Example 131]
< 0.25 µg/mL

Give me measured MIC, please, for this molecule: CCN1CCN(C(=O)N[C@@H](C(=O)N[C@H]2Cc3cccc(C(=O)O)c3OB2O)c2ncc(O)cc2F)C(=O)C1=O [Example 177]
2 to 4 µg/mL

Give me measured MIC, please, for this molecule: CCN1C[C@@H](C)N(C(=O)NC(C(=O)N[C@H]2Cc3cccc(C(=O)O)c3OB2O)c2ncc(O)cc2F)C(=O)C1=O (stereo partly shown) [Example 191]
32 to 64 µg/mL

Give me measured MIC, please, for this molecule: C[C@H]1CN(CCO)C(=O)C(=O)N1C(=O)NC(C(=O)N[C@H]1Cc2cccc(C(=O)O)c2OB1O)c1ccc(O)c(O)c1Cl (stereo partly shown) [Example 224]
0.5 to 1 µg/mL

====

Test system: E. coli AG100
Test: Broth microdilution MIC, E. coli AG100 (wild-type parent)
Assay type: cell-based
Settings: Escherichia coli; wild-type parent E. coli AG100, broth microdilution; read-out: MIC E. coli AG100
Source text: To determine the ability of test compounds to potentiate the inhibition of the growth of bacterial strains, classic cell based broth microdilution minimum inhibitory concentration (MIC) assays were employed. Briefly, cryo-preserved bacterial cultures of challenge strains are streaked for isolation on appropriate agar medium, in this case Mueller Hinton II agar. […] The MIC values are read visually as the lowest concentration well with no bacterial growth.
Property Label: MIC

Below, 2 compounds whose answers are already recorded.
>>> print(df.to_string())
                                   compound        measured
0  CCN1CCN(C(=O)NC(C(=O)N[C@H]2Cc3cccc(C(=O)O)c3OB2O)c2cnc(O)cn2)C(=O)C1=O (stereo partly shown) [Example 121]  32 to 64 µg/mL
1  CCN1CCN(C(=O)NC(C(=O)N[C@H]2Cc3cccc(C(=O)O)c3OB2O)c2cc(O)c(O)c(Cl)c2)C(=O)C1=O (stereo partly shown) [Example 45]   8 to 16 µg/mL

// output MIC; input NS(=O)(=O)c1ccc([C@@H](NC(=O)N2CCN(CCF)C(=O)C2=O)C(=O)N[C@H]2Cc3cccc(C(=O)O)c3OB2O)cc1O [Example 170] ; system E. coli AG100
8 to 16 µg/mL

// output MIC; input CCN1CCN(C(=O)NC(C(=O)N[C@H]2Cc3cccc(C(=O)O)c3OB2O)c2ncccc2F)C(=O)C1=O (stereo partly shown) [Example 162] ; system E. coli AG100
32 to 64 µg/mL

// output MIC; input CCN1CCN(C(=O)N[C@H](C(=O)N[C@H]2Cc3cccc(C(=O)O)c3OB2O)c2ncc(O)cc2F)C(=O)C1=O [Example 176] ; system E. coli AG100
32 to 64 µg/mL

// output MIC; input CCN1CCN(C(=O)NC(C(=O)N[C@H]2Cc3cccc(C(=O)O)c3OB2O)c2ncc(O)cn2)C(=O)C1=O (stereo partly shown) [Example 202] ; system E. coli AG100
32 to 64 µg/mL

// output MIC; input CCN1CCN(C(=O)NC(C(=O)N[C@H]2Cc3cccc(C(=O)O)c3OB2O)c2ccc(S(N)(=O)=O)cc2F)C(=O)C1=O (stereo partly shown) [Example 203] ; system E. coli AG100
32 to 64 µg/mL

====

Below: a set of entries, each annotated with reported MIC.
System: N. gonorrhoeae WHO F
Experiment: Liquid broth MIC, N. gonorrhoeae WHO F
Type: cell-based
Settings: Neisseria gonorrhoeae; N. gonorrhoeae WHO F, liquid broth; read-out: Minimum Inhibitory Concentration, N. gonorrhoeae WHO F

In [3]: df
Out[3]:
                                   molecule  property_label       measured
0  CCCN1CCN(C(=O)NC(C(=O)N[C@H]2Cc3cccc(C(=O)O)c3OB2O)c2cnc(N)s2)C(=O)C1=O (stereo partly shown)             MIC  < 0.125 µg/mL

Give me measured MIC, please, for this molecule: CCN1CCN(C(=O)NC(C(=O)N[C@H]2Cc3ccc(F)c(C(=O)O)c3OB2O)c2ccc(O)c(O)c2F)C(=O)C1=O (stereo partly shown)
< 0.125 µg/mL

====

Below: a set of entries, each annotated with reported MIC.
Tested on: K. pneumoniae 848844
Assay: microbe, parasite or virus in culture
Assay type: cell-based, Klebsiella pneumoniae
Conditions: Klebsiella pneumoniae; K. pneumoniae 848844 producing SHV-11 and KPC-2; read-out: MIC K. pneumoniae 848844

Below, 2 compounds whose answers are already recorded.
>>> df
                                   compound      measured
0  C[C@H]1CN(CCO)C(=O)C(=O)N1C(=O)NC(C(=O)N[C@H]1Cc2cccc(C(=O)O)c2OB1O)c1ccc(O)c(O)c1Cl (stereo partly shown)  2 to 4 µg/mL
1  CNCCN1CCN(C(=O)NC(C(=O)N[C@H]2Cc3cccc(C(=O)O)c3OB2O)c2ccc(O)c(O)c2Cl)C(=O)C1=O (stereo partly shown)  2 to 4 µg/mL

// output MIC; input `CCN1CCN(C(=O)N[C@@H](C(=O)N[C@H]2Cc3cccc(C(=O)O)c3OB2O)c2ccc(O)c(O)c2Cl)C(=O)C1=O` ; system K. pneumoniae 848844
0.5 to 1 µg/mL

// output MIC; input NC(=O)c1ccc(C(NC(=O)N2CCN(CCF)C(=O)C2=O)C(=O)N[C@H]2Cc3cccc(C(=O)O)c3OB2O)cc1 (stereo partly shown) ; system K. pneumoniae 848844
> 128 µg/mL

// output MIC; input `CCN1CCN(C(=O)N[C@H](C(=O)N[C@H]2Cc3cccc(C(=O)O)c3OB2O)c2ncc(O)cc2F)C(=O)C1=O` ; system K. pneumoniae 848844
> 128 µg/mL

// output MIC; input CCN1CCN(C(=O)NC(C(=O)N[C@H]2Cc3cccc(C(=O)O)c3OB2O)c2cccnc2)C(=O)C1=O (stereo partly shown) ; system K. pneumoniae 848844
> 128 µg/mL

// output MIC; input CCCN1CCN(C(=O)NC(C(=O)N[C@H]2Cc3cccc(C(=O)O)c3OB2O)c2ccc(O)cn2)C(=O)C1=O (stereo partly shown) ; system K. pneumoniae 848844
32 to 64 µg/mL

// output MIC; input `CCN1CCN(C(=O)N[C@@H](C(=O)N[C@H]2Cc3ccc(F)c(C(=O)O)c3OB2O)c2c(F)cc(O)c(O)c2Cl)C(=O)C1=O` ; system K. pneumoniae 848844
2 to 4 µg/mL

// output MIC; input `CCN1CCN(C(=O)N[C@@H](C(=O)N[C@H]2Cc3ccc(F)c(C(=O)O)c3OB2O)c2ccc(O)c(F)c2)C(=O)C1=O` ; system K. pneumoniae 848844
> 128 µg/mL

// output MIC; input CCOC(=O)c1cccc2c1OB(O)[C@@H](NC(=O)C(NC(=O)N1CCN(CC)C(=O)C1=O)c1ncc(O)cc1F)C2 (stereo partly shown) ; system K. pneumoniae 848844
> 128 µg/mL

// output MIC; input `NCCN1CCN(C(=O)N[C@H](C(=O)N[C@H]2Cc3ccc(F)c(C(=O)O)c3OB2O)c2ncc(O)cc2F)C(=O)C1=O` ; system K. pneumoniae 848844
32 to 64 µg/mL

// output MIC; input `CCN1CCN(C(=O)N[C@@H](C(=O)N[C@H]2Cc3ccc(F)c(C(=O)O)c3OB2O)[C@@H](C)O)C(=O)C1=O` ; system K. pneumoniae 848844
32 to 64 µg/mL

// output MIC; input `CCN1CCN(C(=O)N[C@@H](C(=O)N[C@H]2Cc3cccc(C(=O)O)c3OB2O)c2ccc(O)c(F)c2)C(=O)C1=O` ; system K. pneumoniae 848844
32 to 64 µg/mL

Origin of the recorded values: patent US12173018B2
